Parameter: selectivity ratio. Scope: all listed entries.
test summary: Protection Index, ratio of CC50 for human HepG2 cells to MIC for Mycobacterium tuberculosis H37Rv
Type: toxicity
run conditions: read-out: PI

structure notation	test readout	measured value
CC(C)(C)OC(=O)N1CCN(Cc2cc(-c3ccc(C(F)(F)F)cc3)n(-c3ccc(F)cc3)n2)CC1	selectivity ratio	> 25
COC1CCN(Cc2cc(C)n(C3CCCCC3)n2)CC1	selectivity ratio	> 2

Let's switch to this compound now.
INPUT: Could you tell me which selectivity ratio is on file for `COC1CCN(Cc2cc(-c3ccc(C)nc3)n(C3CCCCC3)n2)CC1` ?
OUTPUT: > 2

====

test summary: Protection Index, ratio of CC50 for human HepG2 cells to MIC for Mycobacterium tuberculosis H37Rv
Format: toxicity
run conditions: read-out: PI
test readout: selectivity ratio

Solved entries (count: 4):
molecule	test readout	measured value
CC(C)n1nc(CN2CCOCC2)cc1-c1ccc(C(F)(F)F)cc1	selectivity ratio	> 4
Cc1c(CN2CCOCC2)nn(-c2ccc(C(C)C)cc2)c1-c1ccc(F)cc1	selectivity ratio	> 2
Cc1ccc(-c2cc(CN3CCOCC3)nn2C2CCCCC2)cn1	selectivity ratio	> 2
CC(C)(C)OC(=O)N1CCN(Cc2cc(-c3ccc(C(F)(F)F)cc3)n(C3CCCCC3)n2)CC1	selectivity ratio	> 50

Let's switch to this molecule now.
INPUT: Could you tell me which selectivity ratio is on file for CC(C)c1ccc(-c2cc(CN3CCOCC3)nn2C2CCCOC2)cc1 (stereo not given) ?
OUTPUT: > 50
